- Test: Aqueous solubility in phosphate buffer at pH 7.4
- Format: physicochemical
Test readout: solubility (µM)

Examples with answers:
[[record]]
compound_string = "Cc1ccccc1Nc1c(Nc2ccc(C)c(S(=O)(=O)N(C)C)c2O)c(=O)c1=O"
reported_value = 10

[[record]]
compound_string = "O=C(c1c(Cl)ccc(Nc2c(Nc3ccccc3Br)c(=O)c2=O)c1O)N1CCCC1"
reported_value = 143


A = O=c1c(Nc2ccc(Cl)cc2O)c(Nc2ccccc2Br)c1=O
B = N#Cc1ccc(Nc2c(Nc3ccccc3Br)c(=O)c2=O)c(O)c1
C = CN1CCCN(C(=O)c2cccc(Nc3c(Nc4ccccc4)c(=O)c3=O)c2O)CC1.O=C(O)C(F)(F)F
D = NC(=O)c1c(Cl)ccc(Nc2c(Nc3ccccc3)c(=O)c2=O)c1O
Req: Please list the entries, largest solubility first. Dear reader, please state the labels in the requested order.
Resp: C, D, B, A
(C: 178 µM, D: 88 µM, B: 14 µM, A: 3 µM)

====

- Test: Clearance in Sprague-Dawley rat at 4 umol/kg, iv and 8 umol/kg, po
- Type: ADME, organism-based
- Reported conditions: in vivo
Test readout: clearance (mL/min/kg)

Sample answers from the record:
[[record]]
compound_string = "CN1CCCN(S(=O)(=O)c2c(Cl)ccc(Nc3c(Nc4ccccc4Br)c(=O)c3=O)c2O)CC1.Cl"
test_readout = "clearance"
reported_value = 4

[[record]]
compound_string = "CN1CCCN(C(=O)c2cccc(Nc3c(Nc4ccccc4)c(=O)c3=O)c2O)CC1.O=C(O)C(F)(F)F"
test_readout = "clearance"
reported_value = 15


a = O=C(c1cccc(Nc2c(Nc3ccccc3C(F)(F)F)c(=O)c2=O)c1O)N1CCCC1
b = Cc1ccccc1Nc1c(Nc2ccc(C)c(S(=O)(=O)N(C)C)c2O)c(=O)c1=O
Req: Response body: label of entry with the larger clearance; valid values a , b . Refer to your chosen item by its label in the answer.
Resp: a

====

- Test: Dissociation constant, pKa at pH 7.4
- Assay type: physicochemical
Test readout: pKa

[[record]]
compound_string = "N#Cc1ccc(Nc2c(O)c(=O)/c2=N\\c2ccccc2)c(O)c1"
reported_value = 7.09

[[record]]
compound_string = "O=c1c(O)c(Nc2ccccc2)/c1=N/c1ccccc1O"
reported_value = 8.6


====

- Target system: C-X-C chemokine receptor type 2 (Homo sapiens, UniProt P25025)
- Sequence (P25025 whole entry): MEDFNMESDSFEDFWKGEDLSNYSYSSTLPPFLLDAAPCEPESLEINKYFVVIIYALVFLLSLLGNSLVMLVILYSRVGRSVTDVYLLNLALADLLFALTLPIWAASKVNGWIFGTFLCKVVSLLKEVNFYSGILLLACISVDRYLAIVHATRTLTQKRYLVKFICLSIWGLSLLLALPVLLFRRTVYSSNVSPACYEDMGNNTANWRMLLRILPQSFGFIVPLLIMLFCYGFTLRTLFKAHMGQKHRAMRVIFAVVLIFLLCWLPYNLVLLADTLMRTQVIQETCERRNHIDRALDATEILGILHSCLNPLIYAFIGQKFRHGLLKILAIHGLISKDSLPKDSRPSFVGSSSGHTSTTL
- Test: Displacement of [125I]IL8 from human recombinant CXCR2 expressed in CHO cells
pIC50: −log10 of the molar value.
Test readout: pIC50

[[record]]
compound_string = "O=C(Nc1ccccc1)Nc1cc(Cl)c([N+](=O)[O-])cc1O"
test_readout = "pIC50"
reported_value = 6.02

[[record]]
compound_string = "Cc1cccc(O)c1Nc1c(Nc2ccccc2)c(=O)c1=O"
test_readout = "pIC50"
reported_value = 5.76

[[record]]
compound_string = "N#Cc1cccc(NC(=O)Nc2ccccc2)c1O"
test_readout = "pIC50"
reported_value = 6.56


P = CN1CCN(C(=O)c2cccc(Nc3c(Nc4ccccc4)c(=O)c3=O)c2O)CC1.O=C(O)C(F)(F)F
Q = CN1CCCN(C(=O)c2cccc(Nc3c(Nc4ccccc4)c(=O)c3=O)c2O)CC1.O=C(O)C(F)(F)F
R = O=c1c(Nc2ccccc2)c(Nc2c(O)cccc2[N+](=O)[O-])c1=O
S = CN1CCN(S(=O)(=O)c2c(F)ccc(Nc3c(Nc4ccccc4Br)c(=O)c3=O)c2O)CC1.O=C(O)C(F)(F)F
T = Cc1ccc(NC(=O)Nc2ccccc2)c(O)c1
Req: List from greatest to least pIC50. Please, when replying, give the labels in the order that was requested.
Resp: S, P, Q, R, T
(S: 7.89, P: 7.57, Q: 7.36, R: 6.45, T: 4.60)
